- System: NanoLuc
- EXPERIMENTAL_PROTOCOL: NanoLuc luciferase reporter expression from constitutive promoters and RBSs integrated with pNBU2
- Format: cell-based, B. thetaiotaomicron
- CONDITION_DETAILS: RBS combined with promoter PBT1311, NanoLuc reporter, three biological replicates
QUANTITY_MEASURED: Average Luminescence (RLU/CFU)
Numbers only; they are read as RLU/CFU.

Some substances with recorded Average Luminescence (RLU/CFU):
1) C47: RBS, SEQ ID NO: 126 (DNA TCCCGCATTTTAAAATAAAATAAATTATTTGTTTAATTAAACGAAT; chemistry not fully specified); 0.00189
2) C28: RBS, SEQ ID NO: 81 (DNA TCCCGCATTTTAAAATAAAATAAATTATTCATTTATTTAAACGAAT; chemistry not fully specified); 0.009278

Would you kindly look at the next entry?
Average Luminescence (RLU/CFU) value, target or system NanoLuc, for A25: RBS, SEQ ID NO: 84 (DNA TCCCGCATTTTAAAATAAAATAAATTATTCCTTTAATTAAACGAAT; chemistry not fully specified) : 0.008671

Values compiled from patent US11591604B2.
